Data origin, for the record: patent US8791113B2

Tested on: TGF-beta-induced phosphorylation of Smad2 (Ser465/467) and Smad3 (Ser423/425) in Mv1-Lu cells
ASSAY_NOTES: Inhibition of Smad2/3 phosphorylation in Mv1Lu cells (PathScan Phospho-Smad2 ELISA)
Type: cell-based, mink Mustela vison
MEASUREMENT_CONTEXT: Neogale vison, Mv1-Lu cells, TGF-beta 1 5 ng/ml, Phospho-Smad2/3 ELISA, read-out: TβR activity (Example 51)
Reported values of IC50 for individual entries
RECORDED_ENDPOINT: IC50

• Fc1ccccc1-c1cc(-c2nccc3cnccc23)c2cccnc2n1 = 1000 to 10000 nM
• O=c1c2cnccc2c(-c2cc(-c3cc(Cl)ccc3F)nc3ncccc23)cn1CCN1CCOCC1 = 1000 to 10000 nM
• CC(=O)Nc1ccc2cnccc2c1-c1cc(-c2ccccc2F)nc2ncccc12 = > 10000 nM
• Nc1nccc2c(-c3cc(-c4cc(C(F)(F)F)ccc4F)nc4ncccc34)cccc12 = < 1000 nM
• CN(C)CCOc1ccc(-c2cc(-c3cc(Cl)ccc3F)nc3ncccc23)c2ccncc12 = < 1000 nM
• Nc1cc2cnccc2c(-c2cc(-c3ccccc3F)nc3ncccc23)n1 = < 1000 nM
• COc1ccc2cnccc2c1-c1cc(-c2ccccc2F)nc2ncccc12 = < 1000 nM
• Nc1nccc2c(-c3cc(-c4c(F)cccc4F)nc4ncccc34)nccc12 = > 10000 nM
• Fc1ccc(Cl)cc1-c1cc(-c2nccc3cnccc23)c2cccnc2n1 = < 1000 nM
